Consider the following binders and their measured Kd readings.
- TARGET UNDER TEST: T1, Human IL-18BP (isoform A) (human, UniProt O95998 31-194, biotinylated (site not stated))
- T1 construct: also called decoy receptor
- T1 sequence: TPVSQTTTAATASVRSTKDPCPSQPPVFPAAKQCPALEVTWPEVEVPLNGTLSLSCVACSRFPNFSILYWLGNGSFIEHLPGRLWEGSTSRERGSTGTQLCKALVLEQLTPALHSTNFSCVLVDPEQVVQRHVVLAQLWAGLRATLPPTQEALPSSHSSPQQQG
- PROTOCOL: SPR, Biacore 8K, 37 C, biotinylated target on SA chip, single-cycle kinetics
Report as a plain number; the unit pM is understood.

>>> measured_value("Human IL-18 A162C/I185C (ligand, Made in mammalian cells) YFGKLESKLSVIRNLNDQVLFIDQGNRPLFEDMTDSDSRDNAPRTIFIISMYKDSQPRGMAVTISVKSEKISTLSSENKIISFKEMNPPDNIKDTKSDIIFFQRSVPGHDNKMQFESSSYEGYFLCSEKERDLFKLILKKEDELGDRSCMFTVQNED")
6.5
>>> measured_value("Human IL-18 N50C/L174C (ligand, Made in mammalian cells) YFGKLESKLSVIRCLNDQVLFIDQGNRPLFEDMTDSDSRDNAPRTIFIISMYKDSQPRGMAVTISVKSEKISTLSCENKIISFKEMNPPDNIKDTKSDIIFFQRSVPGHDNKMQFESSSYEGYFLACEKERDLFKLICKKEDELGDRSIMFTVQNED")
14
>>> measured_value("Human IL-18 F57C/T81C (ligand, Made in mammalian cells) YFGKLESKLSVIRNLNDQVLCIDQGNRPLFEDMTDSDSRDNAPRCIFIISMYKDSQPRGMAVTISVKSEKISTLSSENKIISFKEMNPPDNIKDTKSDIIFFQRSVPGHDNKMQFESSSYEGYFLASEKERDLFKLILKKEDELGDRSIMFTVQNED")
7
>>> measured_value("Human IL-18 S46C/V189C (ligand, Made in mammalian cells) YFGKLESKLCVIRNLNDQVLFIDQGNRPLFEDMTDSDSRDNAPRTIFIISMYKDSQPRGMAVTISVKSEKISTLSSENKIISFKEMNPPDNIKDTKSDIIFFQRSVPGHDNKMQFESSSYEGYFLASEKERDLFKLILKKEDELGDRSIMFTCQNED")
18
>>> measured_value("Human IL-18 S101C/T109C (ligand, Made in mammalian cells) YFGKLESKLSVIRNLNDQVLFIDQGNRPLFEDMTDSDSRDNAPRTIFIISMYKDSQPRGMAVTICVKSEKISCLSSENKIISFKEMNPPDNIKDTKSDIIFFQRSVPGHDNKMQFESSSYEGYFLASEKERDLFKLILKKEDELGDRSIMFTVQNED")
11

Enquiry: Query: Kd; subject: Human IL-18 S43C/S86C (ligand, Made in mammalian cells) YFGKLECKLSVIRNLNDQVLFIDQGNRPLFEDMTDSDSRDNAPRTIFIICMYKDSQPRGMAVTISVKSEKISTLSSENKIISFKEMNPPDNIKDTKSDIIFFQRSVPGHDNKMQFESSSYEGYFLASEKERDLFKLILKKEDELGDRSIMFTVQNED
Return: 9

Enquiry: How about this binder: Human IL-18 hCS (ligand) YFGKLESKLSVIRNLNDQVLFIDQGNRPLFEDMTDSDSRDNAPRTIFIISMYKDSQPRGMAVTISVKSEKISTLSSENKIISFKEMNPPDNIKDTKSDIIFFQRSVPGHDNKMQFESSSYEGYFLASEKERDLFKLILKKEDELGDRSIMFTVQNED
Return: 35
